In this section we review reported peptide exchange yield values for a set of binders.
TARGET OR TEST SYSTEM: T1, HLA-A*01:01 (human)
T1 construct: MHC class I monomer first loaded with a UV-sensitive peptide (not identified) that is cleaved by UV irradiation and exchanged for the tested peptide; captured on streptavidin plates, detected with anti-β2m; also called peptide-receptive MHC molecules
ASSAY DETAILS: UV-ligand exchange, anti-b2m ELISA
ATTRIBUTE MEASURED: peptide exchange yield

# BINDER, ATTRIBUTE MEASURED, VAL
data = [
    ("IADNPQLSFY", "peptide exchange yield", "> 75%"),
    ("ASDPASSTSCY", "peptide exchange yield", "50 to 75%"),
    ("QSLPEFGLTY", "peptide exchange yield", "20 to 50%"),
    ("MSPDIALLYL", "peptide exchange yield", "50 to 75%"),
    ("NEIDIHSIYFY", "peptide exchange yield", "20 to 50%"),
    ("FLFNDALLY", "peptide exchange yield", "> 75%"),
    ("SADEAHGLL", "peptide exchange yield", "20 to 50%"),
    ("EVLDSLLAQY", "peptide exchange yield", "20 to 50%"),
    ("SMDPVTGYQY", "peptide exchange yield", "50 to 75%"),
    ("TQRTSFQFY", "peptide exchange yield", "20 to 50%"),
    ("TTENSGNYY", "peptide exchange yield", "> 75%"),
    ("NFSDLVFTY", "peptide exchange yield", "20 to 50%"),
    ("WELDSLEY", "peptide exchange yield", "20 to 50%"),
    ("RLAQYTIERY", "peptide exchange yield", "20 to 50%"),
    ("TPIPFDKILY", "peptide exchange yield", "20 to 50%"),
    ("MTSTEQSLYY", "peptide exchange yield", "50 to 75%"),
    ("QSEKEPGQQY", "peptide exchange yield", "50 to 75%"),
    ("MMTDLTSVY", "peptide exchange yield", "50 to 75%"),
    ("LMDEGAVLTL", "peptide exchange yield", "20 to 50%"),
    ("QSTTGVSHY", "peptide exchange yield", "50 to 75%"),
    ("QSLPEFGLTYY", "peptide exchange yield", "20 to 50%"),
    ("KSEMNVNMKY", "peptide exchange yield", "> 75%"),
    ("YTDFVGEGLY", "peptide exchange yield", "50 to 75%"),
    ("GTNLPTLLW", "peptide exchange yield", "10 to 20%"),
    ("GFGGLSSQGVYY", "peptide exchange yield", "50 to 75%"),
    ("GLEYEAPKLY", "peptide exchange yield", "20 to 50%"),
    ("LEDGIEQSAY", "peptide exchange yield", "20 to 50%"),
    ("VMDTLGLFY", "peptide exchange yield", "> 75%"),
    ("ISEDKSISF", "peptide exchange yield", "20 to 50%"),
    ("LLDEDNNIKL", "peptide exchange yield", "20 to 50%"),
    ("LTWAHSAKY", "peptide exchange yield", "50 to 75%"),
    ("RINSATGQY", "peptide exchange yield", "20 to 50%"),
]
